Sourced from patent US20240209089A1

Answer each item with its documented Positive rate (%).
Molecular target: T1, human CD8α full-length protein (human, UniProt P01732 22-235)
T1 construct: whole, on cells; The same entry is used for MC38-CD8α transfectants and for human CD8+ T cells from peripheral blood; the assay field says which cells; also called cell surface CD8α; MC38-CD8α cells
T1 sequence (P01732 22-235): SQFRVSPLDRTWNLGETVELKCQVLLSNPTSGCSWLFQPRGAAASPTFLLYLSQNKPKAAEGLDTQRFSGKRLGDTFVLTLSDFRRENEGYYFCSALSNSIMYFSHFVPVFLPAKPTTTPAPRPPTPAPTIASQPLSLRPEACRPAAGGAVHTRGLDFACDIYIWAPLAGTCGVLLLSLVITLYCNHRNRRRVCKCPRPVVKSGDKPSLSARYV
Test: flow cytometry on MC38-CD8α cells, secondary antibody-PE
Answer in %, number only, no unit symbol.

Input line: Look at this binder and give its reported Positive rate (%). anti-CD8α single domain antibody C45 (VHH, not shown: small tags and cut ends, Only the E. coli expression is described for this antibody) VHH: QVQLVESGGGLVQPGGSLRLSCAASGPIFSINTMGWYRQVPGKQRELVATMHSTGSTNYADSVKGRFTISRDNAKKTVYLQMNSLKPDDTAVYYCHVDDTGWGTVDSWGQGTQVTVSS
Output line: 99.1

Input line: Look at this binder and give its reported Positive rate (%). anti-CD8α single domain antibody S18 (VHH, not shown: small tags and cut ends, Only the E. coli expression is described for this antibody) VHH: QLQLVESGGGLVQPGGSLRLSCAASGSIFSINTMGWYRQAPGKQRELVATMTSHGSTNYADSVKGRFTISRDNSKNTVYLQMNSLKLQDTAVYYCNANDMGWGTVDAWGQGTLVTVSS
Output line: 99.2
